Molecular target: recombinant human ACC2 (Homo sapiens)
Construct: a full length Cytomax clone of ACC2 was purchased from Cambridge Bioscience Limited; made in house; host or cells: CHO cells (tetracycline induction, pcDNA5 FRT TO-TOPO); purified on a Softlink Soft Release Avidin column
Sequence (O00763 whole entry): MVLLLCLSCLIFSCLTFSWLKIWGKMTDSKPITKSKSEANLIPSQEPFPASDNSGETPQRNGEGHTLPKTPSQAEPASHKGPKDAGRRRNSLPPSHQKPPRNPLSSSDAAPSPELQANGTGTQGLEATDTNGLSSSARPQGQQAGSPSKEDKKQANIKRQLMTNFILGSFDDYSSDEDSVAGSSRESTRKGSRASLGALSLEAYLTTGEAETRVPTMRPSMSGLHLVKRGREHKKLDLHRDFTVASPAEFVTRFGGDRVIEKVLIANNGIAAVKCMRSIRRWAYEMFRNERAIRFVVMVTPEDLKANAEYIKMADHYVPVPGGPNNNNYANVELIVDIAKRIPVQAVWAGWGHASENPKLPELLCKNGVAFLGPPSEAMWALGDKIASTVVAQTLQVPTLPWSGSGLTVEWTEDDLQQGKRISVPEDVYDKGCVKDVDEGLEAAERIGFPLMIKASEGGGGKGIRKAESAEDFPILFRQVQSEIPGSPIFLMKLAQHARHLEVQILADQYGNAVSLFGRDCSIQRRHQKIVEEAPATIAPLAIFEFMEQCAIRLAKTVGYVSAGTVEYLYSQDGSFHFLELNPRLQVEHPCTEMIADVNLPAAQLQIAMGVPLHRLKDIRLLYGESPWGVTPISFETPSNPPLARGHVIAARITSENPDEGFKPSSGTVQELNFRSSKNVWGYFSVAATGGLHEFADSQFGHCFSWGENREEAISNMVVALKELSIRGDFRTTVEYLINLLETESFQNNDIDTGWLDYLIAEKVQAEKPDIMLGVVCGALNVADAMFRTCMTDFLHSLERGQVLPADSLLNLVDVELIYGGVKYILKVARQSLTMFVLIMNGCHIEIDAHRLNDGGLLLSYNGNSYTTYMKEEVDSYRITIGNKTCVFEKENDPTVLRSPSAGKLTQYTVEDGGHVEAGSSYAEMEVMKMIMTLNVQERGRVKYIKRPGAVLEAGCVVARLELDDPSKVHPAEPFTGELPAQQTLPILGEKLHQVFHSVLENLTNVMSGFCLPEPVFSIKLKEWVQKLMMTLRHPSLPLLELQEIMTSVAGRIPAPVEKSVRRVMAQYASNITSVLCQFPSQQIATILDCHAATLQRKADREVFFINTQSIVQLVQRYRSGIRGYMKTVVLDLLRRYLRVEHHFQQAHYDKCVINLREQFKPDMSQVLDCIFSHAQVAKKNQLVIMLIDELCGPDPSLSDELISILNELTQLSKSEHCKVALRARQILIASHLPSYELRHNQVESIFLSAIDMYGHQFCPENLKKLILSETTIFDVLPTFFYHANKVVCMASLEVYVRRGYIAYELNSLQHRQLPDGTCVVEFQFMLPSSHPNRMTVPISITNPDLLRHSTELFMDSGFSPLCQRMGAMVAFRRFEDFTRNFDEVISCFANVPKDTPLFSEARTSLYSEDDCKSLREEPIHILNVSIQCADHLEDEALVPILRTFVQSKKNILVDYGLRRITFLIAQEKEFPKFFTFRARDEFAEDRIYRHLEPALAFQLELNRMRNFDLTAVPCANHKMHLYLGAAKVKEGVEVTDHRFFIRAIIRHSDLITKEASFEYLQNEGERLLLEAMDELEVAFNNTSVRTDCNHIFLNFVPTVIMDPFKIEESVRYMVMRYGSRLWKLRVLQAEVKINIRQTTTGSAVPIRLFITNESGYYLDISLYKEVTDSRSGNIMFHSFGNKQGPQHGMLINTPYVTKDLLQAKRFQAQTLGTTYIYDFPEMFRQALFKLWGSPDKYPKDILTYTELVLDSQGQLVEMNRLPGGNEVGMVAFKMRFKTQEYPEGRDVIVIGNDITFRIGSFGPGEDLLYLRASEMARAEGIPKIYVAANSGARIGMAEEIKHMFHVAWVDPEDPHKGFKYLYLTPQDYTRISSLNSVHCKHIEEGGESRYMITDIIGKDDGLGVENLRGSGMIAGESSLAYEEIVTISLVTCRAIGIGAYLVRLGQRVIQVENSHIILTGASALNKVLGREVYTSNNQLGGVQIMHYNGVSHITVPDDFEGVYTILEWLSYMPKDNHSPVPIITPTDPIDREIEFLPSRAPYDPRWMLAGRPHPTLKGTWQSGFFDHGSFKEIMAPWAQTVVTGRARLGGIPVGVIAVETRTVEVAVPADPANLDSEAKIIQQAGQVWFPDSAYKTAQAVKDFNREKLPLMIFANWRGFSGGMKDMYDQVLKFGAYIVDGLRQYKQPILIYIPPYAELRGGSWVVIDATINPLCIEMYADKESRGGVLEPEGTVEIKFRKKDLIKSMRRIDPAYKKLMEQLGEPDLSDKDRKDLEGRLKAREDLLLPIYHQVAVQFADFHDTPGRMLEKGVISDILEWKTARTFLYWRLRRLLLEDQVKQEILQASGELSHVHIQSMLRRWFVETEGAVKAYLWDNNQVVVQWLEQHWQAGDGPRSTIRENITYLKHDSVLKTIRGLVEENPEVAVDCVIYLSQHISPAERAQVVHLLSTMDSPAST
Assay: Measurement of human ACC2 inhibition (recombinant hACC2 Transcreener ADP detection FP assay)
Type: biochemical
pIC50: −log10 of the molar value.

[
  {
    "COMPOUND": "Cc1cc(C(=O)N2CCC3(CC2)CC(=O)c2nn(C)cc2O3)cc2cn[nH]c12 [1.029]",
    "TARGET_OR_TEST_SYSTEM": "recombinant human ACC2 (Homo sapiens)",
    "pIC50": 6.20
  },
  {
    "COMPOUND": "CCn1nc2c(c1C)OC1(CCN(C(=O)c3cc(C)c4nc[nH]c4c3)CC1)CC2=O [3.005]",
    "TARGET_OR_TEST_SYSTEM": "recombinant human ACC2 (Homo sapiens)",
    "pIC50": 7.10
  }
]

Data credit: patent US8318762B2
